assayed system: BRM (Homo sapiens, UniProt P51531)
Construct: In-Cell Western Screen of BRM Degradation in SW1573 Cells; endogenous in cells; host or cells: SW1573
Sequence (P51531 whole entry): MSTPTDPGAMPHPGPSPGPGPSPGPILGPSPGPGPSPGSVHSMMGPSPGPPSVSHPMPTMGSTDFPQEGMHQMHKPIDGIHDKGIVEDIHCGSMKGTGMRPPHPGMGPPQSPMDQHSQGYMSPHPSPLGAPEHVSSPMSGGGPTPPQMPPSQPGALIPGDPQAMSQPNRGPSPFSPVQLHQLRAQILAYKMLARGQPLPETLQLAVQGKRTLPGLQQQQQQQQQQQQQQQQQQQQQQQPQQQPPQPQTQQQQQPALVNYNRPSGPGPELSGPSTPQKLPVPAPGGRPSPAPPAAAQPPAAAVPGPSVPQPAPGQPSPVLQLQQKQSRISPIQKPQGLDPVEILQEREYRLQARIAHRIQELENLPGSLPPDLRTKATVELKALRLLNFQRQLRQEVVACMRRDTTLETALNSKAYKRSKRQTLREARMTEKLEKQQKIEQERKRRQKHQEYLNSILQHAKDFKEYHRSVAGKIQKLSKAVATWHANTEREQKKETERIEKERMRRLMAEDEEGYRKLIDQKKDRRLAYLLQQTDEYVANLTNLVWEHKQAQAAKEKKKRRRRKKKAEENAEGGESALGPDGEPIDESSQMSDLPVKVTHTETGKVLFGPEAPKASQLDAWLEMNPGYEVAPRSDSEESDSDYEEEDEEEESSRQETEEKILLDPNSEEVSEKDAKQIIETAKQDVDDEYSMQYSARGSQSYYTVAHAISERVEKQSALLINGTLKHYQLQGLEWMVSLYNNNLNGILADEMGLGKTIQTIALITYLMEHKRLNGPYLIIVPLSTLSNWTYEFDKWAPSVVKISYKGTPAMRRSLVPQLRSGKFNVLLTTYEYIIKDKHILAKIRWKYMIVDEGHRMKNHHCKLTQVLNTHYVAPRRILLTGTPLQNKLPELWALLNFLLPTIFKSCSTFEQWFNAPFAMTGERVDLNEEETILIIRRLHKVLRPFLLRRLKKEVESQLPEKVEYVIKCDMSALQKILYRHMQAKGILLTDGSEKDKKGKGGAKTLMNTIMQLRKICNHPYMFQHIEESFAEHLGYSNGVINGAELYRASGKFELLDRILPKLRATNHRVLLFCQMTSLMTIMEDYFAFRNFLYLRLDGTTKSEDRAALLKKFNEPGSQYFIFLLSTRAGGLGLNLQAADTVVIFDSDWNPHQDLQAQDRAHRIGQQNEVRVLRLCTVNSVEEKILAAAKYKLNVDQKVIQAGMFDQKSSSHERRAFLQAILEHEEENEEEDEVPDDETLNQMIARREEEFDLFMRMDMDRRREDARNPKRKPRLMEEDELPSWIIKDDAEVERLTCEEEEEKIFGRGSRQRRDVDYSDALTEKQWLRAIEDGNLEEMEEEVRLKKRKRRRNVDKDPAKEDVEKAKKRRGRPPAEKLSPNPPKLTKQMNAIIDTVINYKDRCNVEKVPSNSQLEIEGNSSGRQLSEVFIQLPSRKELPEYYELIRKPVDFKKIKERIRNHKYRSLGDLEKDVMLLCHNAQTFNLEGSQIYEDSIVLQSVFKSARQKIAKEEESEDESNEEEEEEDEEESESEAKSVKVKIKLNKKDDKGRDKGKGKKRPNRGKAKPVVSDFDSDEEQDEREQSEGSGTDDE
experiment description: In-cell Western screen of BRM degradation in SW1573 cells (Dmax and DC50)
Assay type: cell-based
condition details: BRM degradation, SW1573 cells; read-out: DC50
Overview of reported DC50 across a group of compounds:

compound	DC50
C#Cc1ccc([C@H](C)NC(=O)[C@@H]2C[C@@H](O)CN2C(=O)[C@@H](c2cc(N3CCC(CN4CCC(O[C@H]5C[C@H](Oc6cc(N7C8CCC7CN(c7cc(-c9ccccc9O)nnc7N)C8)ccn6)C5)CC4)CC3)no2)C(C)C)cc1 [compound 678]	< 2.5 nM
Cc1ncsc1-c1ccc([C@H](C)NC(=O)[C@@H]2C[C@@H](O)CN2C(=O)[C@H](c2cc(CCCN3CCN(CCOc4cc(N5C6CCC5CN(c5cc(-c7ccccc7O)nnc5N)C6)ccn4)CC3)no2)C(C)C)cc1 [compound 170]	2.5 to 10 nM
Cc1ncsc1-c1ccc([C@H](C)NC(=O)[C@@H]2C[C@@H](O)CN2C(=O)[C@@H](c2onc(OCCN3CCC(O[C@H]4C[C@H](Oc5cc(N6C7CCC6CN(c6cc(-c8ccccc8O)nnc6N)C7)ccn5)C4)CC3)c2F)C(C)C)cc1 [compound 209]	< 2.5 nM
Cc1ncsc1-c1ccc([C@H](C)NC(=O)[C@@H]2C[C@@H](O)CN2C(=O)[C@H](c2cc(OCC#Cc3ncc(O[C@H]4C[C@H](Oc5cc(N6C7CCC6CN(c6cc(-c8ccccc8O)nnc6N)C7)ccn5)C4)cn3)no2)C(C)C)cc1 [compound 231]	< 2.5 nM
CC(C)[C@@H](C(=O)N1C[C@H](O)C[C@H]1C(=O)N[C@@H](C)c1ccc(-c2nccn2C)cc1)c1cc(OCCN2CCN(CCOc3cc(N4C5CCC4CN(c4cc(-c6ccccc6O)nnc4N)C5)ccn3)CC2)no1 [compound 115]	> 30 nM
Cc1ncsc1-c1ccc([C@H](C)NC(=O)[C@@H]2C[C@@H](O)CN2C(=O)[C@H](c2cc(N3CCCC(CN4CCC(O[C@H]5C[C@H](Oc6cc(N7C8CCC7CN(c7cc(-c9ccccc9O)nnc7N)C8)ccn6)C5)CC4)C3)no2)C(C)C)cc1 (stereo partly shown) [compound 655]	> 30 nM
Cc1ncsc1-c1ccc(CNC(=O)[C@@H]2C[C@@H](O)CN2C(=O)[C@@H](NC(=O)COCCOCCOCCOCCOCCOCCOc2cc(N3C4CCC3CN(c3cc(-c5ccccc5O)nnc3N)C4)ccn2)C(C)(C)C)cc1 [compound 8]	10 to 30 nM
Cc1nccn1-c1ccc([C@H](C)NC(=O)[C@@H]2C[C@@H](O)CN2C(=O)[C@@H](c2cc(N3CCC(CN4CCC(O[C@H]5C[C@H](C#C[C@@H](C)n6cc(-c7cc(-c8ccccc8O)nnc7N)cn6)C5)CC4)CC3)no2)C(C)C)cc1 (single isomer, unassigned) [compound 638]	< 2.5 nM
Cc1ncsc1-c1ccc([C@H](C)NC(=O)[C@@H]2C[C@@H](O)CN2C(=O)[C@@H](c2cc(N3CCC(CN4CCC(O[C@H]5C[C@H](Oc6cc(N7C8CCC7CN(c7cc(-c9ccccc9O)nnc7N)C8)ccn6)C5)CC4)CC3)no2)C(C)C)c(N)c1 [compound 708]	< 2.5 nM
Cc1ncsc1-c1ccc([C@H](C)NC(=O)[C@@H]2C[C@@H](O)CN2C(=O)[C@H](c2cc(OC/C=C/c3ccc(O[C@H]4C[C@H](Oc5cc(N6C7CCC6CN(c6cc(-c8ccccc8O)nnc6N)C7)ccn5)C4)cn3)no2)C(C)C)cn1 [compound 206]	10 to 30 nM
Cc1nccn1-c1ccc([C@H](C)NC(=O)[C@@H]2C[C@@H](O)CN2C(=O)[C@H](c2cc(OCCN3CCC(O[C@H]4C[C@H](Oc5cc(N6C7CCC6CN(c6cc(-c8ccccc8O)nnc6N)C7)ccn5)C4)CC3)no2)C(C)C)cc1 [compound 176]	> 30 nM
Cc1ncoc1-c1ccc([C@H](C)NC(=O)[C@@H]2C[C@@H](O)CN2C(=O)[C@@H](c2cc(OCCN3CCC(O[C@H]4C[C@H](Oc5cc(N6C7CCC6CN(c6cc(-c8ccccc8O)nnc6N)C7)ccn5)C4)CC3)no2)C(C)C)cn1 [compound 230]	< 2.5 nM
CC(C)C(C(=O)N1C[C@H](O)C[C@H]1C(=O)N[C@@H](C)c1ccc(-c2scnc2C#CCN(C)C)cc1)c1cc(OCCN2CCN(CCOc3cc(N4C5CCC4CN(c4cc(-c6ccccc6O)nnc4N)C5)ccn3)CC2)no1 (stereo partly shown) [compound 172]	< 2.5 nM
CC(C)[C@H](C(=O)N1C[C@H](O)C[C@H]1C(=O)N[C@@H](C)c1ccc(-c2ccnn2C)cc1)c1cc(N2CCC(CN3CCC(O[C@H]4C[C@H](Oc5cc(N6C7CCC6CN(c6cc(-c8ccccc8O)nnc6N)C7)ccn5)C4)CC3)CC2)no1 [compound 631]	< 2.5 nM
Cc1ncsc1-c1ccc(CNC(=O)[C@@H]2C[C@@H](O)CN2C(=O)[C@H](c2cc(OCCN3CCN(CCOc4cc(N5C6CCC5CN(c5cc(-c7ccccc7O)nnc5N)C6)ccn4)CC3)no2)C(C)C)cc1 [compound 41]	10 to 30 nM
Cc1ncsc1-c1ccc([C@H](C)NC(=O)[C@@H]2C[C@@H](O)CN2C(=O)[C@@H](c2cc(OCCN3CC4CC(C3)N4CCOc3cc(N4C5CCC4CN(c4cc(-c6ccccc6O)nnc4N)C5)ccn3)no2)C(C)C)cc1 [compound 133]	< 2.5 nM

###

assayed system: BRM (Homo sapiens)
Construct: In-Cell Western Screen of BRM Degradation in SW1573 Cells; endogenous in cells; host or cells: SW1573
experiment description: In-cell Western screen of BRM degradation in SW1573 cells (Dmax and DC50)
Format: cell-based
condition details: BRM degradation, SW1573 cells; read-out: DC50

compound	DC50
Cc1ncsc1-c1ccc([C@H](C)NC(=O)[C@@H]2C[C@@H](O)CN2C(=O)[C@@H](c2cc(N3CCC[C@H](CN4CCC(O[C@H]5C[C@H](Oc6cc(N7C8CCC7CN(c7cc(-c9ccccc9O)nnc7N)C8)ccn6)C5)CC4)C3)no2)C(C)C)cc1 (single isomer, unassigned)	< 2.5 nM
Cc1ncsc1-c1ccc([C@H](C)NC(=O)[C@@H]2C[C@@H](O)CN2C(=O)[C@H](c2cc(N3CCC(C(C)N4CCC(O[C@H]5C[C@H](Oc6cc(N7C8CCC7CN(c7cc(-c9ccccc9O)nnc7N)C8)ccn6)C5)CC4)CC3)no2)C(C)C)cc1 (some centres unmarked)	< 2.5 nM
Cc1ncsc1-c1ccc([C@H](C)NC(=O)[C@@H]2C[C@@H](O)CN2C(=O)[C@@H](c2cc(OCCN3CCN(CCOc4cc(N5C6CCC5CN(c5cc(-c7ccccc7O)nnc5N)C6)ccn4)C[C@H]3C)no2)C(C)C)cc1	< 2.5 nM
Cc1ncsc1-c1ccc([C@H](C)NC(=O)[C@@H]2C[C@@H](O)CN2C(=O)[C@@H](c2cc(N3CCC(CN4CCC(O[C@H]5C[C@@H](N6CCC(C(C)n7cc(-c8cc(-c9ccccc9O)nnc8N)cn7)CC6)C5)CC4)CC3)no2)C(C)C)cc1 (some centres unmarked)	< 2.5 nM
Cc1ncsc1-c1ccc([C@H](C)NC(=O)[C@@H]2C[C@@H](O)CN2C(=O)[C@@H](c2cc(OCCN3CCN(Cc4ccc(C(C)n5cc(-c6cc(-c7ccccc7O)nnc6N)cn5)cc4)CC3)no2)C(C)C)cc1 (some centres unmarked)	< 2.5 nM
Cc1ncsc1-c1ccc([C@H](C)NC(=O)[C@@H]2C[C@@H](O)CN2C(=O)[C@H](c2cc(OCCC3CCN(C(=O)[C@H]4C[C@H](Oc5cc(N6C7CCC6CN(c6cc(-c8ccccc8O)nnc6N)C7)ccn5)C4)CC3)no2)C(C)C)cn1	> 30 nM
Cc1ncsc1-c1ccc(CNC(=O)[C@@H]2C[C@@H](O)CN2C(=O)[C@@H](c2cc(OCCN3CCN(CCCc4cc(N5C6CCC5CN(c5cc(-c7ccccc7O)nnc5N)C6)ccn4)CC3)no2)C(C)C)cc1	10 to 30 nM
Cc1ncsc1-c1ccc(CNC(=O)[C@@H]2C[C@@H](O)CN2C(=O)[C@H](C(C)C)N2Cc3ccccc3C2=O)c(OCCOCCOCCOCCOCCn2cc(-c3cc(-c4ccccc4O)nnc3N)cn2)c1	> 30 nM

###

assayed system: BRM (Homo sapiens)
Construct: In-Cell Western Screen of BRM Degradation in SW1573 Cells; endogenous in cells; host or cells: SW1573
experiment description: In-cell Western screen of BRM degradation in SW1573 cells (Dmax and DC50)
Type: cell-based
condition details: BRM degradation, SW1573 cells; read-out: DC50
measured endpoint: DC50

molecule	assayed system	measured endpoint	observed result
Cc1ncsc1-c1ccc(CNC(=O)[C@@H]2C[C@@H](O)CN2C(=O)[C@H](c2cc(OCCN3CCC(O[C@H]4C[C@H](Oc5cc(N6C7CCC6CN(c6cc(-c8ccccc8O)nnc6N)C7)ccn5)C4)CC3)no2)C(C)C)c(C#N)c1 [compound 224]	BRM (Homo sapiens)	DC50	> 30 nM
Cc1ncsc1-c1ccc([C@H](C)NC(=O)[C@@H]2C[C@@H](O)CN2C(=O)[C@H](c2cc(N3CCC(CN4CCC(O[C@H]5C[C@H](Oc6cc(N7C8CCC7CN(c7cc(-c9ccccc9O)nnc7N)C8)ccn6)C5)CC4)CC3)no2)C(C)C)cc1O [compound 700]	BRM (Homo sapiens)	DC50	> 30 nM
